- TARGET_DESC: PCP recognition sites
- ASSAY_NAME: [3H]TCP Radioreceptor Assay (internal screen)
- Type: binding, rat (male Sprague-Dawley
- COND: rat whole brain membranes; ~1 nM [3H]TCP; room temperature, 25 min
pKi: recorded values
In simple prose, pKi is minus the logarithm base ten of a concentration in moles per litre.

// solved cases for pKi follow
[[record]]
compound = "CCOC1(OCC)CC2c3c(C)cccc3C1c1cccc[n+]12.[O-][Cl+3]([O-])([O-])[O-] (stereo not shown)"
recorded_value = 5.13

[[record]]
compound = "CCOC1(OCC)C2c3c(OC)cccc3C([n+]3ccccc32)C1(C)C (stereo not shown)"
recorded_value = 7.88

[[record]]
compound = "CCCOC1(OCCC)C2c3ccccc3C([n+]3ccccc32)C1(C)C.[O-][Cl+3]([O-])([O-])[O-] (stereo not shown)"
recorded_value = 7.94


Turning now to a further compound:
Noted for CCOC1C2c3ccccc3C([n+]3ccccc32)C1(C)C.[O-][Cl+3]([O-])([O-])[O-] (stereo not shown) : its pKi reads 5.67

Data origin: patent US5380729A
